Where do the numbers come from? From patent US20250188188A1.

# TEST TARGET: T1, active human C1s purified from human serum (CompTech, Tyler, TX, catalog number A104) (human, UniProt P09871 16-437; P09871 438-688)
# T1 construct: Serum-derived material, biotinylated for the ELISA; also called human active C1s; active C1s
# T1 sequence 1: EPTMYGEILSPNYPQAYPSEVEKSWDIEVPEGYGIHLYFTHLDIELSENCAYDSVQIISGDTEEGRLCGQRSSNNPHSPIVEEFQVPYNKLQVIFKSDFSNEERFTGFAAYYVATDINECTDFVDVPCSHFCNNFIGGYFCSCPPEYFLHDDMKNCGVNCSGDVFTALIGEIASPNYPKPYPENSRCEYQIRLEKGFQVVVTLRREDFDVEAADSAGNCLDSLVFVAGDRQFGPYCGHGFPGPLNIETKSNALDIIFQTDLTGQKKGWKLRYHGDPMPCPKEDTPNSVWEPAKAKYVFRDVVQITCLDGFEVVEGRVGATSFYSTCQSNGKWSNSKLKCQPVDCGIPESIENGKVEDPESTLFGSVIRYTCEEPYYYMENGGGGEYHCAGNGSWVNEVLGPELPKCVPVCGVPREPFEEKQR
# T1 sequence 2: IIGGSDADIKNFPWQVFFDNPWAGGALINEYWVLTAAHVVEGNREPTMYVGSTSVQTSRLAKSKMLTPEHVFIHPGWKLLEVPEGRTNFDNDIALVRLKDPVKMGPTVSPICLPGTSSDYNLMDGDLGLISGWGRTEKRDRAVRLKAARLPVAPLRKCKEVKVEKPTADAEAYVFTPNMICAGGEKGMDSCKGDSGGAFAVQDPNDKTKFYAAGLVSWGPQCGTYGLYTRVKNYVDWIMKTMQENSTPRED
# ASSAY PROCEDURE: SPR, antibody captured via anti-human Fc, C1s in solution
ENDPOINT NAME: pKd
FYI, pKd means -log10 of a concentration in mol per litre.

Examples with their reported pKd follow.
• MAB2 (antibody, V domains shown, IgG) VH: QVQLVESGGGLVKPGGSLRLSCAASGFTFSDYYMSWIRQAPGKGLEWVSYISRSGSTKYYADSVKGRFTISRDNAKNSLYLQMNSLRAEDTAVYYCARDETDYGWDYWGQGTLVTVSS VL: DIQMTQSPSSLSASVGDRVTITCQASQDISNYLNWYQQKPGKAPKLLIYDASNLETGVPSRFSGSGSGTDFTFTISSLQPEDIATYYCKQYEDYPLTFGGGTKVEIK = 8.74
• MAB7 (antibody, V domains shown, IgG) VH: QVQLVESGGGLVKPGGSLRLSCAASGFTFSDYYMSWIRQAPGKGLEWVSYISRSGSTKYYADSVKGRFTISRDNAKNSLYLQMNSLRAEDTAVYYCARDETDYAYDNWGQGTLVTVSS VL: DIQMTQSPSSLSASVGDRVTITCQASQDISNYLNWYQQKPGKAPKLLIYDASNLETGVPSRFSGSGSGTDFTFTISSLQPEDIATYYCQQYEDYPLVFGGGTKVEIK = 8.91

pKd for MAB3 (antibody, V domains shown, IgG) VH: QVQLVESGGGLVKPGGSLRLSCAASGFTFSDYYMSWIRQAPGKGLEWVSYISRSGSTKYYADSVKGRFTISRDNAKNSLYLQMNSLRAEDTAVYYCARDETDYAFDEWGQGTLVTVSS VL: DIQMTQSPSSLSASVGDRVTITCQASQDISNYLNWYQQKPGKAPKLLIYDASNLETGVPSRFSGSGSGTDFTFTISSLQPEDIATYYCKQYEDYPLTFGGGTKVEIK is 9.03

pKd for MAB4 (antibody, V domains shown, The IgG4 YTE form is entered separately as IgG4-MAB4) VH: QVQLVESGGGLVKPGGSLRLSCAASGFTFSDYYMSWIRQAPGKGLEWVSYISRSGSTKYYADSVKGRFTISRDNAKNSLYLQMNSLRAEDTAVYYCARDESQYALDYWGQGTLVTVSS VL: DIQMTQSPSSLSASVGDRVTITCQASQDISNYLNWYQQKPGKAPKLLIYDASNLETGVPSRFSGSGSGTDFTFTISSLQPEDIATYYCHQYEDYPLTFGGGTKVEIK is 8.91
